tested on: ND3 neuronal cell line; assay: Measurement of nerve growth stimulation effect (neurite bearing assay, neurite length assay, number of cells); assay type: cell-based; details: 3 μM; 6 hours; relative cell number, DMSO well = 1

compound	viability at 3 µM / %
CC1=C(CCCCCCCCCCCCCCCOC(N)=O)C(C)(C)CCC1=O	94
CC1=C(CCCCCCCCCCCCCCOC(C)C)C(C)(C)CCC1=O	112
CCOCCCCCCCCCCCCCCCCC1=C(C)C(=O)CCC1(C)C	91
CCOCCCCCCCCCCCCCC1=C(C)C(=O)CCC1(C)C	105
CC1=C(CCCCCCCCCCCCCCCOC(C)C)C(C)(C)CCC1=O	100
CC1=C(CCCCCCCCCCCCCOC(C)C)C(C)(C)CCC1=O	106
CC1=C(CCCCCCCCCCCCCCCOC2CCCCO2)C(C)(C)CCC1=O (stereo not shown) [Compound 6, reference compound]	85
COCCCCCCCCCCCCCCCC1=C(C)C(=O)C=CC1(C)C	112
CNC(=O)CCCCCCCCCCCCCCC1=C(C)C(=O)CCC1(C)C	90
CC1=C(CCCCCCCCCCCCCCCO)CCCC1=O [Compound 7, reference compound]	100
CC1=C(CCCCCCCCCCCCCCC(=O)N(C)C)C(C)(C)CCC1=O	112
COCCCCCCCCCCCCCCCC1=C(C)C(=O)CCC1	101
COCCCCCCCCCCCCCC1=C(C)C(=O)CCC1(C)C	88
[2H]C([2H])([2H])OCCCCCCCCCCCCCCCC1=C(C)C(=O)CCC1(C)C	90
CC1=C(CCCCCCCCCCCCCCCOC(=O)c2ccccc2)C(C)(C)CCC1=O	95
COCCCCCCCCCCCCCCCC1=C(C)C(=O)C(C)C1C (stereo not shown)	99
CCOCCCCCCCCCCCCC1=C(C)C(=O)CCC1(C)C	90
CC1=C(CCCCCCCCCCCCCCCOC(F)(F)F)C(C)(C)CCC1=O	100
CC1=C(CCCCCCCCCCCCCCC#N)C(C)(C)CCC1=O	101
